- Tested on: GABA-binding site of the GABA-A receptor
- ASSAY_INFO: Displacement of tritiated muscimol from brain membranes
- TEST_PARAMETERS: 10 μM
READOUT_NAME: Displacement of muscimol
Please answer using a numeric value trailed by its unit.

{"COMPOUND": "O=C1C=CC(C2c3cc4c(cc3CCN2C(=O)OCc2ccccc2)OCO4)O1 (racemic) [Compound 44]", "Displacement of muscimol": "0%"}
{"COMPOUND": "COc1cc2c(cc1OC)C(C1C=CC(=O)O1)NCC2 (racemic) [Compound 42]", "Displacement of muscimol": "0%"}

What does the record list as Displacement of muscimol for O=C1C=CC(C2c3ccccc3CCN2C(=O)Oc2ccccc2)O1 (racemic) [Compound 57] ? 0%

Which Displacement of muscimol reading was recorded for the compound CC1=C[C@@H]([C@H]2c3cc4c(cc3CCN2C)OCO4)OC1=O (racemic) [Compound 43] ? 45%

----------
- TARGET_OF_ASSAY: benzodiazepine-binding site of the GABA-A receptor
- ASSAY_INFO: Displacement of tritiated flunitrazepam from brain membranes
- TEST_PARAMETERS: tissue not stated; read-out: IC50 Flu / BZ receptor
pIC50: −log10 of the molar value.
READOUT_NAME: pIC50

Would you kindly share the measured pIC50 for O=C1CCC(C2c3ccccc3CCN2S(=O)(=O)c2ccc(C(F)(F)F)cc2)O1 (mixture of isomers) ? < 4.00

----------
- TARGET_OF_ASSAY: benzodiazepine-binding site of the GABA-A receptor (Rattus norvegicus, UniProt P18508+P62813)
- Construct: IC50 Flu / BZ receptor; other: cerebellum (ce); other: cerebellum (ce; BZ1 subtype); other: 10 μM; cerebellum; other: 100 μM; other: 0.5 μM
- Sequence (P62813 28-455): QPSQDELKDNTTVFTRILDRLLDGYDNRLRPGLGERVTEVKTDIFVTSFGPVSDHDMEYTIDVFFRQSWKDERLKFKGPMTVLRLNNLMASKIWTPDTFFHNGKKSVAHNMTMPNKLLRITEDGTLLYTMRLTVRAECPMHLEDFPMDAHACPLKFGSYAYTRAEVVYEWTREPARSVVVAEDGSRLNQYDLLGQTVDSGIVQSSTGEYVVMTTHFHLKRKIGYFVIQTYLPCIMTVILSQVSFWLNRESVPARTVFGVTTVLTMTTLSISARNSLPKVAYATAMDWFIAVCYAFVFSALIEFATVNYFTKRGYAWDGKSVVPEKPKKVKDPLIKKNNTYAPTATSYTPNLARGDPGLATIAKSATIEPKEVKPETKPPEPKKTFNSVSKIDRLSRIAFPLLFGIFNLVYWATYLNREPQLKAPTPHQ
- Sequence (P18508 39-466): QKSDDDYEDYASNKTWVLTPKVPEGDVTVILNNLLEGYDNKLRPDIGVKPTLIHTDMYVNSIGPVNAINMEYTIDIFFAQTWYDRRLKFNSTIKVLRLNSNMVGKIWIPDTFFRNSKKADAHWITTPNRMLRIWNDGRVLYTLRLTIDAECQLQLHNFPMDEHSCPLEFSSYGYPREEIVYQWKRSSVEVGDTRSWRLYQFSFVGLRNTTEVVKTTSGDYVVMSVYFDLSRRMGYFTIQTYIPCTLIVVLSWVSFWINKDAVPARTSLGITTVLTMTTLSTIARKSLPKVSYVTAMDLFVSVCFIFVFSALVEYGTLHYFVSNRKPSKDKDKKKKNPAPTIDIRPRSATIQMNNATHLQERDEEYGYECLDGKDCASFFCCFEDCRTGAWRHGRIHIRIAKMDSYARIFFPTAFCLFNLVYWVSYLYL
- Sequence (P63138 26-474 partner): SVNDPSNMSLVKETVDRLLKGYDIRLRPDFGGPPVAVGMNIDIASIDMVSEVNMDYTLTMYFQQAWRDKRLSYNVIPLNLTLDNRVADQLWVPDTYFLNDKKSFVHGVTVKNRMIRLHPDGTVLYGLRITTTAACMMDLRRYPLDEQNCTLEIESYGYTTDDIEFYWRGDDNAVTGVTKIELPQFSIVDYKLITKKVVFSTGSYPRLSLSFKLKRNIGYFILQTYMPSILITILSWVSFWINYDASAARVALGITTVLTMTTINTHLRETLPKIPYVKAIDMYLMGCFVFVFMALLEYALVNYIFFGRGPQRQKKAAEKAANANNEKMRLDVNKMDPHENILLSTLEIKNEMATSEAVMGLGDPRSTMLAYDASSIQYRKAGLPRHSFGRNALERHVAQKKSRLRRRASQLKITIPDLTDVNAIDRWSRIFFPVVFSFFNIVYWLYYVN
- ASSAY_INFO: Displacement of tritiated flunitrazepam from brain membranes
- TEST_PARAMETERS: tissue not stated; read-out: IC50 Flu / BZ receptor
pIC50: −log10 of the molar value.
READOUT_NAME: pIC50

Which pIC50 is listed for O=C1CCC(C2c3ccccc3CCN2S(=O)(=O)c2ccc(OC(F)(F)F)cc2)O1 (mixture of isomers) ? < 4.00

----------
- TARGET_OF_ASSAY: α1β2γ2 subtype of the GABA receptor (Rattus norvegicus, UniProt P18508+P62813+P63138)
- Construct: expressed in transfected cells; host or cells: Xenopus laevis oocytes (cRNA injection)
- Sequence (P62813 28-455): as the sequence (P62813 28-455) above
- Sequence (P63138 25-474 limits assumed): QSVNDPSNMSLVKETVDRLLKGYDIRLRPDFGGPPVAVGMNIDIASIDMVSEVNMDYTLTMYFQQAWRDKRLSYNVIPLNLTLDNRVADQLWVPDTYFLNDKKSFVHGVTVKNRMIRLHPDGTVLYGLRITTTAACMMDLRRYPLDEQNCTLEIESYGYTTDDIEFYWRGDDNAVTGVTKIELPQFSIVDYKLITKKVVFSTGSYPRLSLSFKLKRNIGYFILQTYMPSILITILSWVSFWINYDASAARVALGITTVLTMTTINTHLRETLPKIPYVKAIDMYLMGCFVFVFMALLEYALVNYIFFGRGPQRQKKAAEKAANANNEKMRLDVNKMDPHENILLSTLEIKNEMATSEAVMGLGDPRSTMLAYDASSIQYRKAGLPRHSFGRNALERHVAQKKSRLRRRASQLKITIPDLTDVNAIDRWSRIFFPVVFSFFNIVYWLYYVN
- Sequence (P18508 39-466): as the sequence (P18508 39-466) above
- ASSAY_INFO: Electrophysiology: modulation of GABA currents in Xenopus oocytes expressing recombinant GABA-A receptors
- Type: cell-based
- TEST_PARAMETERS: 100 μM compound with GABA; α1β2γ2 in oocytes
READOUT_NAME: % stimulation of the GABA currents (100 μM)

Before answering, review these 6 worked examples.
{"MOLECULE": "O=C1CCC(C2c3ccccc3CCN2C(=O)OCc2ccccc2)O1 (racemic)", "OBSERVED": "+351 ± 17%"}
{"MOLECULE": "O=C1C=CC(C2c3ccccc3CCN2C(=O)OCc2ccccc2)O1 (racemic) [Compound 50]", "OBSERVED": "+281 ± 35%"}
{"MOLECULE": "Cc1ccc(S(=O)(=O)N2CCc3ccccc3C2C2CCC(=O)O2)cc1 (single isomer, unassigned) [Compound 68]", "OBSERVED": "+184 ± 43%"}
{"MOLECULE": "Cc1ccc(S(=O)(=O)N2CCc3ccccc3C2[C@H]2CCC(=O)O2)cc1 (mixture of isomers)", "OBSERVED": "+579 ± 106%"}
{"MOLECULE": "Cc1ccc(S(=O)(=O)N2CCc3ccccc3C2C2CCC(=O)O2)cc1 (single isomer, unassigned) [Compound 69]", "OBSERVED": "+859 ± 75%"}
{"MOLECULE": "COc1cc2c(cc1OC)C(C1C=C(C)C(=O)O1)N(C(=O)OCc1ccccc1)CC2 (racemic) [Compound 47]", "OBSERVED": "60 ± 26%"}

--- query ---
What does the data say about its % stimulation of the GABA currents (100 μM)? Entry: O=C1C=C[C@H]([C@H]2c3ccccc3CCN2C(=S)Oc2ccccc2)O1 (racemic) +155 ± 47%

FYI, the data here is from patent US6649626B1.
